Recorded melting point, one value per entry.
// note: answer is a bare numeric in °C

Example results:
- mol: "CCOc1ccc2c(c1)n(C1CCCCC1)c(=O)n2S(=O)(=O)c1ccc(C(=O)OCc2ccccc2)cc1OC"
  melting point [°C]: 131
- mol: "CCc1cc(C)cc(CC)c1CC(=O)O"
  melting point [°C]: 124
- mol: "Nc1c(Cl)c(C(=O)O)nc(Cl)c1C(F)(F)F"
  melting point [°C]: 173

Now look at this one.
Dear colleague, I am looking for the recorded melting point of the following compound: COc1ccc(CC(=O)c2cc(OC)c(OC)cc2C)cc1OC
115

----------
metricName: melting point

Some solved entries appear below for comparison.
- compound: "CC(C)CC1(SCCCN=[N+]=[N-])c2c([nH]c(=O)n(C)c2=O)SC1Cc1cccc2ccccc12 (centres undefined)"
  result: "94 to 96 °C"
- compound: "C#CC1(O)CCC2C3CCC4=CC(=O)CCC4C3C(C(F)F)CC21C (centres undefined)"
  result: "185 to 187 °C"
- compound: "CCOC(=O)CCCOc1cccc(C=Cc2ccc3ccc(Br)cc3n2)c1"
  result: "61 to 63 °C"
- compound: "CN(C)C(=O)c1nc2n(n1)-c1ccccc1N(c1ccccc1)C2"
  result: "150 to 165 °C"
- compound: "O=C1NC(=O)C(Cc2ccc(OCCON3C(=O)c4ccccc4C3=O)cc2)S1 (centres undefined)"
  result: "146 to 147 °C"

// melting point lookup, key: N#CCCNC(=O)c1cccc(-c2cccn3cc(Cc4cccc(C(F)(F)F)c4)nc23)c1
126 to 127 °C

Can you look up the measured melting point of CC#CCOc1ccc(OCC(=O)OCC)cc1 for me?
100 to 105 °C

Fill blank: measured melting point of the compound CCOC(=O)C1=C(C)N=C(SCc2ccccc2)N(C(=O)OCC)C1c1ccccc1C(F)(F)F (centres undefined) is ____.
85.5 to 87.5 °C

Which measured melting point value corresponds to COc1ccc(C2CCN(C(=O)Nc3ccc4cc(CN5C(C)(C)CCCC5(C)C)ccc4c3)CC2)cc1 ?
164 to 166 °C

----------
Collected melting point values appear next to each entry.

As a guide, the following entries are already answered.
- compound: "NC(=O)C1Cc2c([nH]c3ccccc23)C(c2ccccc2)N1C(=O)CCl (stereo unspecified)"
  melting point: "180 to 182 °C"
- compound: "O=C1c2ccccc2C(=O)N1Cc1ncc(/C=C/C(c2cc(Cl)c(Cl)c(Cl)c2)C(F)(F)F)cc1Cl (stereo unspecified)"
  melting point: "79 to 82 °C"
- compound: "c1ccc2cc(Cn3c(-c4ccc5c(c4)OCO5)nc4ccccc43)ccc2c1"
  melting point: "180 °C"

Need melting point of Cc1c(-c2ccc(Cl)cc2Cl)nc(C#N)n1S(=O)(=O)N(C)C , thanks.
92 to 95 °C

Using the record for O=C1NC(=O)c2c1c(-c1ccccc1Cl)cc1oc3cc(CCCCO)c(O)cc3c21 , report its melting point.
256 to 259 °C

Entry under review: NC(=O)C(=O)NC(C(=O)O)c1ccccc1 (stereo unspecified) . Reported melting point?
193 °C

Can you look up the measured melting point of C=Cc1c(C(=O)O)nc(Cl)c(F)c1N for me?
164 to 166 °C

Can you share its melting point? I mean this compound: COc1ccc(CN(C)CCOc2ccc(NC(=O)c3cccc4c(=O)c5ccccc5[nH]c34)cc2)cc1OC
140 °C

Which value of melting point has been reported for COc1ccc2cc(-c3ncno3)ccc2n1 in the records?
150 to 152 °C

Fill blank: measured melting point of the compound COC(c1cccs1)C1C(c2ccccc2)CC(=O)N1C (stereo unspecified) is ____.
101 to 102 °C

Returns the measured melting point for the input compound. Input: CC(=O)N1N=C(c2ccc([N+](=O)[O-])cc2)c2cc3c(cc2CC1C)OCO3 (stereo unspecified)
140 to 142 °C

Given the compound CSc1nc2ccnn2c(NCc2ccccc2)c1C#N , what is its reported melting point?
165 °C

# input compound: CC(=O)N[C@@H]1[C@H](O)CC(C(=O)O)=C[C@H]1OC(C)C ; wanted: its melting point
64 to 65 °C

melting point lookup needed for N#CCc1c(-c2ccccc2)[nH]c2nccnc12 , thanks.
247 to 248 °C

----------
molecules and their reported melting point

- molecule: "CN1C(=O)C(=NO)C(=NCCCCCC(=O)O)N(C)C1=O"
  metricName: "melting point"
  result: "246 to 248 °C"

Name the reported melting point value associated with the molecule COc1ccc(Cl)c(Oc2c(CCl)nc(N3CCOCC3)nc2NS(=O)(=O)c2ccc(C(C)C)cn2)c1
205 °C

Record request: melting point value, item CNc1c(S(=O)C(F)(F)F)c(C#N)nn1-c1c(Cl)cc(C(F)(F)F)cc1Cl (stereo not given)
227 °C

----------
melting point for assorted compounds

Record excerpt, results attached:
- compound: "COC(=O)CNC(=O)c1ncccc1S"
  result: "178 to 179 °C"
- compound: "CNC(=O)n1c(=O)n(CCCN2CCN(C(c3ccccc3)c3ccccc3)CC2)c2ccccc21"
  result: "153 °C"

Which melting point reading was recorded for the compound COc1cc(/C=C2/C(=O)OC[C@H]2Cc2cc(OC)c(OCc3ccc([N+](=O)[O-])cc3)c(OCc3ccc([N+](=O)[O-])cc3)c2)cc(OC)c1OC ?
171 to 172 °C

Item under review: Cc1cc(Cl)nc2ccc(Br)cc12 . Reported melting point?
139 to 140 °C

For the compound shown here, O=[N+]([O-])c1ccc(OCCN2CCN(c3nsc4ccccc34)CC2)cc1 , give the reported melting point.
115 °C

# melting point lookup, item Cn1c([N+](=O)[O-])cnc1-c1nc(C=O)cs1
180 to 182 °C

I'd like to know its melting point. The compound in question is Cc1c(-c2cc(C#N)ccc2F)sc2nc(N)[nH]c(=O)c12
332 to 336 °C

Reported melting point for CC1(C)OC(c2cccc(S(C)(=O)=O)c2)=C(c2ccccc2)C1=O : what is it?
190 to 191 °C

Entry COc1ccc2ccccc2c1CC(NC(C)=O)C(=O)O (centres undefined) has what melting point?
201 °C

----------
metricName: melting point

- mol: "CCCc1c(OC)n2c3c(=O)n(C)c(=O)n(C)c3nc2n(Cc2ccccc2)c1=O"
  result: "199 to 201 °C"

Requested read-out: melting point. Entry: O=C(CCCN1CCC(c2noc3cc(F)ccc23)CC1)c1cc2c(s1)C(=O)NCCC2
186 to 187 °C

What measured melting point goes with CCOC(=O)C(=Cc1cccc(OC)c1)C(=O)OCC ?
45 °C

Can you share its melting point? I mean this compound: CC(C)C[C@H](NC(=O)OCC1CCCCC1)C(=O)N[C@@H](CC(C)C)C(=O)N[C@@H](C(C)C)[C@@H](O)c1c(-c2ccccc2)c1=O
109 to 116 °C

----------
Reported melting point by item:

Some molecules with known melting point results, for comparison:
- molecule: "CSc1ncc(-c2ccccc2)c(Cl)n1"
  melting point: "99 °C"
- molecule: "CCCc1c(OCCOCCOc2c(C(C)=O)ccc(OCC(=O)O)c2CCC)ccc(C(C)=O)c1O"
  melting point: "96 to 99 °C"
- molecule: "CCCCC1(N2CCCC2)CCC(c2[nH]c3ccccc3c2CCc2ccncc2)CC1 (centres undefined)"
  melting point: "165 to 175 °C"

Kindly review the next molecule as well.
Param item = CC(=O)N(C)C(Cc1ccccc1N)c1ccc(C)s1 (centres undefined) ; retrieve measured melting point.
144 to 145 °C

----------
Known melting point of a selection of compounds

Known melting point results, listed for orientation:
- mol: "O=[N+]([O-])c1ccc(CN2CC=C(/C=C/c3ccccc3)CC2)cc1"
  result: "142 to 144 °C"
- mol: "O=c1[nH]c2ccccc2n1-c1cc(Cl)ccc1O"
  result: "248 to 250 °C"

Next up:
Returns the measured melting point for the input compound. Input: COC(=O)NCc1cccc(Br)c1
41 to 44 °C

----------
metricName: melting point

Worked set:
- compound: "C=CCc1c(C)ccc(N2C(=O)c3ccccc3C2=O)c1OCc1ccccc1"
  result: "107 to 109 °C"
- compound: "CCC[C@H]1CC[C@H](c2ccc(F)c(F)c2)CC1"
  result: "-15.4 °C"
- compound: "CCOc1ccc(C2=NN(C3CCN(C(C)=O)CC3)C(=O)[C@@H]3CC=CC[C@H]23)cc1OCC"
  result: "148 to 150 °C"
- compound: "CC[C@@H](c1ccccc1)N(Cc1ccc(C(=O)N2CCC[C@@H]2CO)cc1)S(=O)(=O)c1ccc(Cl)cc1"
  result: "120 to 121 °C"
- compound: "C(=C\\c1nc(COc2ccc(CCCCn3ccnc3)cc2)co1)/c1ccccc1"
  result: "103 to 104 °C"

Consider the compound O=C1CCC(C(=O)OC2c3ccccc3C(=O)N2c2ccc3ccc(Cl)nc3n2)CC1 (stereo not drawn) and give its measured melting point.
203 °C

Which melting point value is on record for COc1ccnc2[nH]c(CO)cc12 ?
210 to 212 °C
